Measurement notes: NCI Yeast Anticancer Drug Screen. Data for the mlh1 rad18 strain (AID 175)
Conditions used: S. cerevisiae mlh1 rad18 strain growth inhibition; at 50.0 µM (retest, dose inferred, filed as 5.0); hits give high values
Protocol: Growth inhibition of yeast strains with defined genetic alterations is measured as a screen for potential anti-cancer activity. Selected strains with alterations in DNA damage repair or cell cycle control were exposed to compounds and growth inhibition was measured relative to vehicle treated controls. The strain used in this assay is mlh1 rad18
This is part of a sample that, as a whole, favours compounds with a hit. Of some 79,000 tested, about 15% had one in any assay.
Value type: growth inhibition (%)
Quick reminder: number only, in %, skip the unit.

Compound	Reported result
CC(C)CCOC(=O)Nc1cccc(Cl)c1	33
CCOC(=O)C1CCN(Cc2ccccc2)CC1=O (centres undefined)	87
CN1C(=O)CCC2[C@@H]3CC=C4C[C@@H](O)CC[C@]4(C)C3CC[C@@]21C (some centres undefined)	16

So what does the record say about growth inhibition for Cc1cc(C)nc(NS(=O)(=O)c2ccc(Nc3c4ccccc4nc4c(C(=O)NC(CO)(CO)CO)cccc34)cc2)n1 ?
4

Here is the next compound: CC(=O)OCc1cc(=O)n(C)c2c3c4c(cc12)c(C)cc(=O)n4CO3
99

Another compound: CC1CCC(C(C)C2C(O)CC3C4CCC5CC(O)CCC5(C)C4CCC32C)NC1 (centres undefined)
97

And then O=C(CSCc1c(F)cccc1Cl)Nc1ccc(F)c(Cl)c1 , what is it?
53

Try this compound next: Cc1c(Cl)cccc1NC(=O)/C(Cl)=C(\Cl)C(=O)O
39

Would you mind doing Cc1ncn(-c2ccccc2O)c1C as well?
9

Same for O=Cc1c(O)ccc2ccccc12.[Cu+2]
97

How about Cc1ccc(/C=C/C(=O)/C=C/c2ccc(C)o2)o1 ?
98

Now try O=C(N/N=C/c1ccccc1O)c1ccccc1-n1cccc1 .
74

Now consider CCCCCCCCNS(=O)(=O)c1ccc(N)cc1 and answer again.
2

Likewise for O=C(O)/C(=C\c1ccc(O)cc1)c1cccc2ccccc12 ?
49

Please do the same for Oc1ccc(Cc2cc(Cl)cc(Cl)c2O)cc1Cl as well.
100

# iterate: CC(C)(C)CC(C)(C)NCc1cc(Cl)cc(Cc2cc(Cl)ccc2O)c1O
98

Subsequent entry: CC(N)C1C(C)CC2C3CC=C4CC(O)CCC4(C)C3CCC21C (centres undefined)
86

Try Nc1n[nH]c(=O)c2cccnc12 next.
-14

What about this compound? O=C(Oc1c([N+](=O)[O-])cc(-c2ccc([N+](=O)[O-])cc2)cc1[N+](=O)[O-])c1ccccc1
83

One more compound: Cc1ccc(C(C)(C)c2ccc(C(=O)O)cc2)cc1
-7

Param item: Cc1ccc(NC(=O)CC2SC(N)=NC2=O)cc1C (centres undefined)
6
